Biological target: human TLR8 (Homo sapiens)
Sequence (Q9NR97 27-1041): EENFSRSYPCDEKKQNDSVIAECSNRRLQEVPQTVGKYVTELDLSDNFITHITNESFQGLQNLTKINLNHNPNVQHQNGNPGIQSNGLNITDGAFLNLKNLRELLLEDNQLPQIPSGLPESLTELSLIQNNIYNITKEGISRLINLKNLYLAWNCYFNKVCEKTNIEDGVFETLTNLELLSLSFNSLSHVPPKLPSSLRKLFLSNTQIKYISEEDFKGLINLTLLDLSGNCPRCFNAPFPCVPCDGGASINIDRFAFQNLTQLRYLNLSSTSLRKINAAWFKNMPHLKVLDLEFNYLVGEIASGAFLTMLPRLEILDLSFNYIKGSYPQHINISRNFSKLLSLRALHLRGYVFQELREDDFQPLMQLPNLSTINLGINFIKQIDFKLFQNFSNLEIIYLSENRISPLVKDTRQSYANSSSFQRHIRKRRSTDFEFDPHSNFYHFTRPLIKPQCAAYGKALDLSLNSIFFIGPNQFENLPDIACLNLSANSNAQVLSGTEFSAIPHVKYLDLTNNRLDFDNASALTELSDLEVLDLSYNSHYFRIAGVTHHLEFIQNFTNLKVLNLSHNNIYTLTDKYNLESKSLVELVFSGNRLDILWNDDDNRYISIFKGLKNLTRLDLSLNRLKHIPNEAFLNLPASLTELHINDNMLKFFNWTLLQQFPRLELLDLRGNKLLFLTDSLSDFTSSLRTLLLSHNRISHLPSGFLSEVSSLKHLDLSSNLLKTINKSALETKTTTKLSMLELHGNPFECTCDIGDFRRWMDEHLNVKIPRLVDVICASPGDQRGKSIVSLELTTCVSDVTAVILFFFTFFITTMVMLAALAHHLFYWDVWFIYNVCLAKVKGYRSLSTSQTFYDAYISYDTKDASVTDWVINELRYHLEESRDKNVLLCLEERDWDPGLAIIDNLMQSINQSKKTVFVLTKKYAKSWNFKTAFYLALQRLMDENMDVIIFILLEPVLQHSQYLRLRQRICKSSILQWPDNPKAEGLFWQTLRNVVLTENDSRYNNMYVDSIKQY
Assay: HEK-Blue hTLR8 reporter cell assay (SEAP, NF-kB/AP-1) for stimulation of human TLR8
Details: HEK-Blue hTLR8 cells, 24 h incubation, SEAP readout; read-out: TLR8_EC50
Counter-ions that a name gives are not always drawn.
For each record, write down the corresponding EC50.

1) CCC[S+]([O-])c1nc2c(N)nnc(OC(C)C)c2n1Cc1ccc(CN)cc1 (stereo not drawn) :: > 20 µM
2) CCCCCCCCCCC(=O)NCc1ccc(Cn2c(CCCC)nc3c(N)nnc(OC(C)C)c32)cc1 :: > 20 µM

Task: Could you share which EC50 value was measured for CCCCc1nc2c(N)nnc(OC(C)C)c2n1Cc1cccc(CNC2CC2)c1 [Compound 127, dihydrochloride salt] ?
Result: 0.179 µM

* * *

Target: human TLR7 (Homo sapiens, UniProt Q9NYK1)
Construct: host or cells: HEK293 (HEK-Blue hTLR7)
Sequence (Q9NYK1 27-1049): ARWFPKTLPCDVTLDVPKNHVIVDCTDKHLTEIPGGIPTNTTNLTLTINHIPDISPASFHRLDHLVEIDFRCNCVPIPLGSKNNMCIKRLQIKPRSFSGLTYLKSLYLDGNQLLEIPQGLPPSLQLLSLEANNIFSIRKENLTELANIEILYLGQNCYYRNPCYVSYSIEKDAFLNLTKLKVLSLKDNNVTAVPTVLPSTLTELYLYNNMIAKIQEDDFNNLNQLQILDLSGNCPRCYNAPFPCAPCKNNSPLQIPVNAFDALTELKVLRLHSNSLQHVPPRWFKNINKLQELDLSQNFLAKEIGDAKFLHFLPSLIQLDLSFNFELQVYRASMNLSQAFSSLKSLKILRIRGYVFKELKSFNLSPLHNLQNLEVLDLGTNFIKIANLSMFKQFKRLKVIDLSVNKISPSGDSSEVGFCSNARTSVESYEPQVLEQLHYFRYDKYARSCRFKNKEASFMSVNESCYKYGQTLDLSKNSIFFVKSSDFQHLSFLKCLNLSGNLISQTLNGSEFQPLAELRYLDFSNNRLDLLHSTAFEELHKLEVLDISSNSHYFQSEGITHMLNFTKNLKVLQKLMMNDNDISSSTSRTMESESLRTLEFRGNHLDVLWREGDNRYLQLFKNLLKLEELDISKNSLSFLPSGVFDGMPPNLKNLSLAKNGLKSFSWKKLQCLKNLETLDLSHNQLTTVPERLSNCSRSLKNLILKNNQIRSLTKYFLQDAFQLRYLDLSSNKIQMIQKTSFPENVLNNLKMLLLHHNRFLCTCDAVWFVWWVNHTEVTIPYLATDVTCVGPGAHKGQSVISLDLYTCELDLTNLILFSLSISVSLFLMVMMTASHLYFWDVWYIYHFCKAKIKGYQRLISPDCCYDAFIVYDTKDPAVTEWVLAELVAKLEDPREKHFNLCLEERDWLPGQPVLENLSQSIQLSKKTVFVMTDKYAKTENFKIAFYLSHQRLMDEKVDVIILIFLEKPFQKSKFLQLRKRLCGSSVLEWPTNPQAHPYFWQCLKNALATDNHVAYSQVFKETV
Assay: HEK-Blue hTLR7 reporter cell assay (SEAP, NF-kB/AP-1) for stimulation of human TLR7
Type: cell-based
Details: HEK-Blue hTLR7 cells, 24 h incubation, SEAP readout; read-out: TLR7_EC50
Structures can show the parent of a compound that is named as a salt.
Assign labels as follows, please: condition met for EC50 below 300 nM; condition not met for EC50 equal to or exceeding 300 nM.

1. CCCCc1nc2c(N)nnc(OC3CCSC3)c2n1Cc1ccc(OC)cc1 (stereo not drawn) [Compound 58] :: condition not met
2. CCCCc1nc2c(N)nnc(OCCC)c2n1Cc1ccc(OC)cc1 [Compound 5] :: condition met
3. CCCCc1nc2c(N)nnc(OC3CCOCC3)c2n1Cc1ccc(OC)cc1 [Compound 57] :: condition not met
4. CCCCc1nc2c(N)nnc(OC(C)C)c2n1Cc1ccc(CNC(=O)OCc2ccc(OC)cc2)cc1 [Compound 112] :: condition met
5. CCCCc1nc2c(N)nnc(OC(C)C)c2n1Cc1cccc(CNC2(C)CCC2)c1 [Compound 130, dihydrochloride salt] :: condition met

// switching to the query compound
Task: Does this compound meet the criterion EC50 < 300 nM? CCCCc1nc2c(N)nnc(OC(C)C)c2n1Cc1ccc(CNC(C)=O)cc1 [Compound 28]
Result: condition met

* * *

For each record, write down the corresponding EC50.
Target: human TLR7 (Homo sapiens, UniProt Q9NYK1)
Construct: host or cells: HEK293 (HEK-Blue hTLR7)
Test: HEK-Blue hTLR7 reporter cell assay (SEAP, NF-kB/AP-1) for stimulation of human TLR7
Format: cell-based
Conditions: HEK-Blue hTLR7 cells, 24 h incubation, SEAP readout; read-out: TLR7_EC50
Protocol: The below tests, involving measuring the in vitro activity of some compounds of the disclosure on TLR7 and TLR8, were carried out using the HEK-Blue™ cells as reporter. The activity described below, with respect to TLR7, TLR8, IFN-α2a, IL-6, IL29 and TNF-α, is given by the half maximal effective concentration (EC50), which corresponds to the concentration required to obtain a 50% of the activation. […]
Structures can show the parent of a compound that is named as a salt.
One number for each entry, in nM.

Consider the following illustrative entries.
1) CCCCCCCCCCC(=O)NCc1ccc(Cn2c(CCCC)nc3c(N)nnc(OC(C)C)c32)cc1 :: 117
2) CCCCc1nc2c(N)nnc(OC(C)C)c2n1Cc1ccc(CO)cc1 :: 106
3) CCCCc1nc2c(N)nnc(N3CCC(c4ccc(CO)cc4)C3)c2n1C (stereo not drawn) [Compound 85, hydrochloride] :: 606
4) CCCCc1nc2c(N)nnc(-c3cc[nH]c3)c2n1Cc1ccc(OC)cc1 :: 219
5) CCCCc1nc2c(N)nnc(C=C(C)C)c2n1Cc1ccc(OC)cc1 :: 813
6) CCCCc1nc2c(N)nnc(OC(C)C)c2n1Cc1ccncc1 [Compound 76, 2,2,2-trifluoroacetate] :: 1350
7) CCCCc1nc2c(N)nnc(OC(C)C)c2n1Cc1ccc(CNC2(C)CCC2)cc1 :: 17

Consider the record given below.
Task: Hi! What's the reported EC50 for `CCCCc1nc2c(N)nnc(OC(C)C)c2n1Cc1ccc(CNC(=O)CCOCCOC)cc1` on human TLR7 (Homo sapiens, UniProt Q9NYK1)?
Result: 326
